target: T1, HLA-A*02:01 (human); assay: UV peptide exchange ELISA
T1 construct: monomers captured on streptavidin plates; also called MHC class I
assay.endpoint: peptide exchange yield

INSERT INTO measurements (binder, measurement) VALUES
  ('KILQQLVTL', '50 to 75%'),
  ('ALQDRVPLA', '50 to 75%'),
  ('VLDRESPNV', '50 to 75%'),
  ('YLFEMDSSL', '20 to 50%'),
  ('NLINEINGV', '50 to 75%'),
  ('LLWPGAALL', '20 to 50%'),
  ('ILADIVISA', '50 to 75%'),
  ('SLFGNSGILENV', '50 to 75%'),
  ('YLFESEGLVL', '50 to 75%'),
  ('TLYDIAHTPGV', '≥ 75%'),
  ('ALAEVAAMENV', '50 to 75%'),
  ('MLLTKLPTI', '50 to 75%'),
  ('ALAQYLITA', '50 to 75%'),
  ('SAFPFPVTV', '50 to 75%'),
  ('ALQRKLPYV', '50 to 75%'),
  ('IMEDIILTL', '50 to 75%');
